tested on: MCF7; experiment: Cytotoxicity against human MCF7 cells by resazurin staining based analysis; assay type: functional, cell-based
readout_kind: IC50

Consider the worked cases shown below.
{"molecule": "COc1cc2c(cc1O)OC(C)(C)[C@H]1[C@H]3[C@@H](O[C@@H]21)c1cc(OC)c(O)cc1OC3(C)C (racemic)", "IC50": "> 120 µM"}
{"molecule": "COc1cc2c(cc1O)OC(C)(C)C(O)C2 (racemic)", "IC50": "> 220 µM"}
{"molecule": "COc1ccc2c(c1)C(O)C(O)C(C)(C)O2 (stereo not drawn)", "IC50": "> 220 µM"}

Query string: Please look up its IC50: CC1(C)C=Cc2cc3c(cc2O1)O[C@@H]1c2cc(O)c(O)cc2OC(C)(C)[C@@H]1O3 (racemic)
Result string: 66 µM

Query string: CC/C(=C(\c1ccccc1)c1ccc(OCCN(C)C)cc1)c1ccccc1 [TAMOXIFEN] , same question.
Result string: 23 µM

Query string: COc1cccc2c1C(=O)c1c(O)c3c(c(O)c1C2=O)C[C@@](O)(C(=O)CO)C[C@@H]3O[C@H]1C[C@H](N)[C@H](O)[C@H](C)O1 [DOXORUBICIN] , same question.
Result string: 12 µM

Query string: CC1(C)Oc2ccc(O)cc2C(O)C1O (stereo not drawn) , same question.
Result string: > 240 µM

Query string: CC1(C)Oc2cc(O)c(O)cc2[C@@H]2O[C@H]3c4cc(O)c(O)cc4OC(C)(C)[C@H]3[C@@H]21 (racemic) , same question.
Result string: > 130 µM

* * *

assay: Cytotoxicity against African green monkey Vero cells by green fluorescent protein-based assay; format: toxicity, cell-based; details: African green monkey (Chlorocebus sabaeus)
readout_kind: IC50

Consider the worked cases shown below.
{"compound": "COc1cc2c(cc1O)OC(C)(C)[C@H]1[C@H]3[C@@H](O[C@@H]21)c1cc(OC)c(O)cc1OC3(C)C (racemic)", "result": "> 120 µM"}
{"compound": "COc1cc2c(cc1O)OC(C)(C)C(O)C2 (racemic)", "result": "> 220 µM"}
{"compound": "COc1ccc2c(c1)C(O)C(O)C(C)(C)O2 (configuration not stated)", "result": "220 µM"}
{"compound": "CC1(C)C=Cc2cc3c(cc2O1)O[C@@H]1c2cc(O)c(O)cc2OC(C)(C)[C@@H]1O3 (racemic)", "result": "46 µM"}
{"compound": "CC1(C)Oc2cc(O)c(O)cc2[C@@H]2O[C@H]3c4cc(O)c(O)cc4OC(C)(C)[C@H]3[C@@H]21 (racemic)", "result": "> 130 µM"}

Query string: Please look up its IC50: CC1(C)Oc2ccc(O)cc2C(O)C1O (configuration not stated)
Result string: > 240 µM

Query string: Cc1c2ccncc2c(C)c2c1[nH]c1ccccc12 , same question.
Result string: > 5.4 µM
